Each entry below lists one item and its recorded inhibition at 10 µM value.
System: human acute myeloid leukemia cell line ML-1
Assay: Cytostatic activity on leukemia cell line ML-1 (WST-1)
Assay type: cell-based
Conditions: Homo sapiens, ML1; 10 μmol/L, 72 hours, ML-1 cells; read-out: cytostatic rate ML-1 (%) (10 μmol/L)
Counter-ions that a name gives are not always drawn.
observationType: inhibition at 10 µM (%)

1) COCCC(=O)N1CCN(C(=O)c2ccc(/C=C/c3n[nH]c4ccccc34)cc2)CC1
79
2) O=C(NCCN1CCOCC1)c1ccc(/C=C/c2n[nH]c3ccccc23)cc1
83
3) O=C(c1ccncc1)N1CCN(C(=O)c2ccc(/C=C/c3n[nH]c4ccccc34)cc2)CC1
85
4) CC(C)(C)C(=O)N1CCN(C(=O)c2ccc(/C=C/c3n[nH]c4ccccc34)cc2)CC1
67
5) COCCN1CCN(C(=O)c2ccc(/C=C/c3n[nH]c4ccccc34)cc2)CC1=O [Compound 134, hydrochloride]
88
6) O=C(c1ccc(/C=C/c2n[nH]c3ccccc23)cc1)N1CCN(O)CC1
89
7) CC(C)N1CCN(C(=O)c2ccc(/C=C/c3n[nH]c4ccccc34)cc2)CC1 [Compound 107, hydrochloride]
77
8) CC(C)NC(=O)CN1CCN(C(=O)c2ccc(/C=C/c3n[nH]c4ccccc34)cc2)CC1 [Compound 135, dihydrochloride]
79
9) CN(C)C(=O)NC1CCN(C(=O)c2ccc(/C=C/c3n[nH]c4ccccc34)cc2)CC1
88
10) CC(=O)N1CCN(C(=O)c2ccc(/C=C/c3n[nH]c4ccccc34)cc2)CC1
90
11) CN(C)CC(=O)N1CCN(C(=O)c2ccc(/C=C/c3n[nH]c4ccccc34)cc2)CC1
79
12) CN(C)C(=O)C1CCN(C(=O)c2ccc(/C=C/c3n[nH]c4ccccc34)cc2)CC1
88
13) NC(=O)C1CCN(C(=O)c2ccc(/C=C/c3n[nH]c4ccccc34)cc2)CC1
87
14) O=C(c1ccc(/C=C/c2n[nH]c3ccccc23)cc1)N1CCN(C(=O)[C@H]2CCNC2)CC1 [Compound 124, dihydrochloride]
83
15) NCC(=O)N1CCN(C(=O)c2ccc(/C=C/c3n[nH]c4ccccc34)cc2)CC1 [Compound 61, hydrochloride]
79
16) CCN(CC)C(=O)C1CCN(C(=O)c2ccc(/C=C/c3n[nH]c4ccccc34)cc2)CC1
77
17) CC1(C(=O)N2CCN(C(=O)c3ccc(/C=C/c4n[nH]c5ccccc45)cc3)CC2)CC1
80
18) O=C(c1ccc(/C=C/c2n[nH]c3ccccc23)cc1)N1CCC(O)CC1
88
19) CCC(C)N1CCN(C(=O)c2ccc(/C=C/c3n[nH]c4ccccc34)cc2)CC1=O (stereo not shown) [Compound 116, hydrochloride]
79
20) O=C(c1ccc(/C=C/c2n[nH]c3ccccc23)cc1)N1CCN(C(=O)c2ccsc2)CC1
74
21) Cc1cc(/C=C/c2n[nH]c3ccccc23)ccc1C(=O)N1CCNCC1 [Compound 95, dihydrochloride]
70
22) O=C(NN1CCN(C(=O)c2ccc(/C=C/c3n[nH]c4ccccc34)cc2)CC1)N1CCOCC1
67
23) COC(=O)N1CCN(C(=O)c2ccc(/C=C/c3n[nH]c4ccccc34)cc2)CC1 [Compound 75, hydrochloride]
88
24) NC(=O)c1cc(/C=C/c2n[nH]c3ccccc23)ccc1OCCN1CCOCC1
84
25) CC(CO)(CO)C(=O)N1CCN(C(=O)c2ccc(/C=C/c3n[nH]c4ccccc34)cc2)CC1 [Compound 136, hydrochloride]
82
26) CS(=O)(=O)N1CCN(C(=O)c2ccc(/C=C/c3n[nH]c4ccccc34)cc2)CC1
88
27) N[C@@H]1CCN(C(=O)c2ccc(/C=C/c3n[nH]c4ccccc34)cc2)C1
80
28) NC1CCN(C(=O)c2ccc(/C=C/c3n[nH]c4ccccc34)cc2)CC1
89
29) CCOC(=O)N1CCN(C(=O)c2ccc(/C=C/c3n[nH]c4ccccc34)cc2)CC1
80
30) CCN(CC)CCNC(=O)c1ccc(/C=C/c2n[nH]c3ccccc23)cc1
87
31) N[C@H]1CCN(C(=O)c2ccc(/C=C/c3n[nH]c4ccccc34)cc2)C1
86
